# log10 koff values compiled below
Target: DN-III quality control recombinant protein (produced by Fapon Biotech InC.) (dengue virus)
Assay: BLI, AMC sensor, antibody captured
Note the log scale: values are log10 of koff expressed in s⁻¹.

Mutation 1-31 (antibody, V domains shown) VH: EVQLQQSGTELVRPGALVKLSCKASGFNIKDYYIHWVKQRPRQGLEWIGWIDPENGKTLYDPKFQDKASITSDTSTNTAYLQLRSLTSEDTAVYYCVTAYVRFVYWGQGTLVTVSA VL: QIVLTQSPAIMSAFPGERVTMTCSASTSVRYMYWHQQKPGSSPRLLIYDTSNLASGVPVRFSGSGSGTSYSLTISRDEAMDAATYYCQQWSSFPRTFGGGTKLEIKR = -4.40

// log10 koff lookup, binder = Mutation 1-27 (antibody, V domains shown) VH: EVQLQQSGTELVRPGALVKLSCKASGFNIKDYYVHWVKQRPRQGLEWIGWIDPENGKTIYDPKFQDKASITSDTSTNTAYLQLRSLTSEDTAVYYCVSAYVRFVYWGQGTLVTVSA VL: QIVLTQSPAIMSAFPGERVTMTCSASSSVRYMYWHQQKPGSSPRLLIYDTSNLASGVPVRFSGSGSGTSYSLTISRDEAMDAATYYCQQWSSTPRTFGGGTKLEIKR , result: -4.44

// log10 koff lookup, binder = Mutation 1-21 (antibody, V domains shown) VH: EVQLQQSGTELVRPGALVKLSCKASGFNIKDYYVHWVKQRPRQGLEWIGWIDPENGKTIYDPKFQDKASITSDTSTNTAYLQLRSLTSEDTAVYYCVSAYFRFVYWGQGTLVTVSA VL: QIVLTQSPAIMSAFPGERVTMTCSASSSVRYMYWHQQKPGSSPRLLIYDTSNLASGVPVRFSGSGSGTSYSLTISRDEAMDAATYYCQQWSSFPRTFGGGTKLEIKR , result: -4.88

// log10 koff lookup, binder = anti-dengue virus NS1 3D5 monoclonal antibody (recombinant, expressed in CHO cells) (antibody, mouse IgG1, kappa, V domains shown) VH: EVQLQQSGTELVRPGALVKLSCKASGFNIKDYYVHWVKQRPRQGLEWIGWIDPNNGKTIYDPKFQDKASITSDTSTNTAYLQLRSLTSEDTAVYYCVTAYVRFVYWGQGTLVTVSA VL: QIVLTQSPAIMSAFPGERVTMTCSASTSVKYMYWHQQKPGSSPRLLIYETSNIASGVPVRFSGSGSGTSYSLTISRDEAMDAATYYCQQWSSYPRTFGGGTKLEIKR , result: -3.86

// log10 koff lookup, binder = Mutation 1-24 (antibody, V domains shown) VH: EVQLQQSGTELVRPGALVKLSCKASGFNIKDYYVHWVKQRPRQGLEWIGWIDPENGKTLYDPKFQDKASITSDTSTNTAYLQLRSLTSEDTAVYYCVTAYVRFVYWGQGTLVTVSA VL: QIVLTQSPAIMSAFPGERVTMTCSASTSVRYMYWHQQKPGSSPRLLIYDTSNIASGVPVRFSGSGSGTSYSLTISRDEAMDAATYYCQQWSSYPRTFGGGTKLEIKR , result: -4.76
